- target_of_assay: Protein farnesyltransferase (Homo sapiens, UniProt P49354+P49356)
- protocol_notes: Phenotypic reversion of H-Ras transformed NIH3T3 cells at 5 uM.
- Assay type: functional, cell-based
- condition_info: Mus musculus
// Reversion activity lookup, one value per entry
The reply should contain only the number, in %.

Worked cases, Reversion activity given:
| item_smiles | endpoint_result |
| --- | --- |
| O=C(c1cccc2ccccc12)N1CCN(Cc2c[nH]cn2)c2ccc(-c3ccncc3)cc2C1 | 95 |
| COc1ccc2ccccc2c1C(=O)N1CCN(Cc2c[nH]cn2)c2ccc(-c3ccccc3)cc2C1 | 95 |
| COc1ccc(C(=O)C(=O)N2CCN(Cc3c[nH]cn3)c3ccc(-c4ccccc4)cc3C2)cc1 | 90 |

Param item: `c1ccc(-c2ccc3c(c2)CN(c2nnnn2-c2ccccc2)CCN3Cc2c[nH]cn2)cc1` ; param system: Protein farnesyltransferase (Homo sapiens, UniProt P49354+P49356); output Reversion activity: 0

Param item: `O=C(c1cccc2ccccc12)N1CCN(Cc2c[nH]cn2)c2ccc(-c3ccccn3)cc2C1` ; param system: Protein farnesyltransferase (Homo sapiens, UniProt P49354+P49356); output Reversion activity: 0
